From: patent EP2951180B1

Reported log10 IC50 values are given for each entry in this list.
# assayed-system: HDM2 (Homo sapiens, UniProt Q00987)
# Construct: Thioredoxin (N); made in house; host or cells: E. coli strain BL21(DE3)Rosetta
# Sequence (Q00987 17-125): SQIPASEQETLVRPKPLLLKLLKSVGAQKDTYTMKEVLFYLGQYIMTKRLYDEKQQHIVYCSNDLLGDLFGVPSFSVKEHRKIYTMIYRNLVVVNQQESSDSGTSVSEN
# test: HDM2 FRET assay (inhibition of binding of FITC labeled p53-pocket peptide to HDM2)
# measurement-setup: Table 21; read-out: FRET IC50
# Text: Methods: An HDM2 FRET assay was developed to assess the compounds' inhibitory activity towards binding of p53 protein. […] Protein was purified using Ni-affinity chromatography, followed by size exclusion chromatography using Superdex 75 26/60 column. […] The HDM2 assay buffer contained 1x Phosphate Buffered Saline (Invitrogen, Cat#14190), 0.01% BSA (Jackson ImmunoResearch, Cat# 001-000-162), 0.01% Tween-20. […]
Give log10 of IC50, with IC50 taken in nM.

// below: answered compounds
compound	readout-kind	recorded-value
C[C@@H](Nc1nc(C(=O)O)nc2nc(C3CCCCC3c3ccccc3)n(C[C@H]3CC[C@H](C)CC3)c12)C1CCC1 (stereo partly drawn) [Example 21.17]	log10 IC50	0.63
C[C@@H](Nc1nc(-c2noc(=O)[nH]2)nc2nc(C3=CCCC3)n(C[C@H]3CC[C@H](C)CC3)c12)C1CCC1 [Example 21.32]	log10 IC50	0.69
CC(c1ccc(F)cc1)c1nc2nc(-c3noc(=O)[nH]3)nc(N[C@H](C)C3CCC3)c2n1C[C@H]1CC[C@H](C)CC1 (stereo partly drawn) [Example 21.31]	log10 IC50	1.02
C[C@@H](Nc1nc(C(=O)O)nc2nc(C3CCCC3c3ccccc3)n(Cc3ccc(C(F)(F)F)cc3)c12)C1CCC1 (single isomer, unassigned) [Example 21.6]	log10 IC50	0.13
CC(c1ccccc1F)c1nc2nc(-c3noc(=O)[nH]3)nc(N[C@H](C)C3CCC3)c2n1C[C@H]1CC[C@H](C)CC1 (single isomer, unassigned) [Example 21.36]	log10 IC50	1.63

Now for another entry.
Task item: Notebook: pull reported log10 IC50 for HDM2 (Homo sapiens, UniProt Q00987), entry C[C@@H](Nc1nc(-c2noc(=O)[nH]2)nc2nc(C3CCCCC3c3ccccc3)n(C[C@H]3CC[C@H](C)CC3)c12)C1CCC1 (single isomer, unassigned) [Example 21.26]
Reply: 1.33
